The following molecules were reported with IC50 values on Histone deacetylase 4 (Homo sapiens) in different studies.
Labelling field: enter TRUE if recorded IC50 is less than 20 µM. Enter FALSE if it equals or exceeds that cut-off.

Cc1ccccc1-n1c(SCc2ccc(C(=O)NO)cc2)nc2cc(Cl)ccc2c1=O :: FALSE
O=C(CCCc1ccccc1)CCc1ccc(O)c(O)c1 :: FALSE
O=C(/C=C/c1ccc(O)c(O)c1)CCc1ccccc1 :: FALSE
C#Cc1c[n+](C)ccc1NC(=O)CC(=O)N1Cc2ccccc2C1.[I-] :: FALSE
O=C(CCCCc1ccccc1)CCc1ccccc1 :: FALSE

Q: Regarding `O=C(CCCCc1ccccc1)CCc1cccc(O)c1O` , kindly confirm whether its IC50 is beneath 20 µM.
Ans: FALSE

Q: Regarding `CS(=O)(=O)N(Cc1ccc(C(=O)NNC(=O)C(F)(F)F)cn1)c1cccc(Cl)c1` , kindly confirm whether its IC50 is beneath 20 µM.
Ans: FALSE

Q: Regarding `CCCn1c(N)c(C(c2ccc(Cl)cc2)c2c(N)n(CCC)c(=O)[nH]c2=O)c(=O)[nH]c1=O` , kindly confirm whether its IC50 is beneath 20 µM.
Ans: TRUE
